# experimental_context: in acetone, 318.15 K
result_type: solubility (mole fraction)

molecule_smiles=O=C(N[C@H](Cc1ccccc1)C(=O)O)OCC1c2ccccc2-c2ccccc21 quantitative_result=0.0164

====

# experimental_context: in n-propyl acetate, 288.15 K
result_type: solubility (mole fraction)

molecule_smiles=O=C(N[C@H](Cc1ccccc1)C(=O)O)OCC1c2ccccc2-c2ccccc21 result_type="solubility (mole fraction)" quantitative_result=0.00244

====

# experimental_context: in n-propanol, 323.15 K
result_type: solubility (mole fraction)

molecule_smiles=O=C(N[C@H](Cc1ccccc1)C(=O)O)OCC1c2ccccc2-c2ccccc21 result=0.00456

====

# experimental_context: in 2-butanone, 323.15 K
result_type: solubility (mole fraction)

molecule_smiles=O=C(N[C@H](Cc1ccccc1)C(=O)O)OCC1c2ccccc2-c2ccccc21 result=0.017

====

# experimental_context: in n-propyl acetate, 293.15 K
result_type: solubility (mole fraction)

molecule_smiles=O=C(N[C@H](Cc1ccccc1)C(=O)O)OCC1c2ccccc2-c2ccccc21 result_type="solubility (mole fraction)" quantitative_result=0.00275

====

# experimental_context: in acetonitrile, 288.15 K
result_type: solubility (mole fraction)

molecule_smiles=O=C(N[C@H](Cc1ccccc1)C(=O)O)OCC1c2ccccc2-c2ccccc21 result_type="solubility (mole fraction)" quantitative_result=0.00066

====

# experimental_context: in n-butanol, 283.15 K
result_type: solubility (mole fraction)

molecule_smiles=O=C(N[C@H](Cc1ccccc1)C(=O)O)OCC1c2ccccc2-c2ccccc21 result_type="solubility (mole fraction)" quantitative_result=0.00121

====

# experimental_context: in methanol, 313.15 K
result_type: solubility (mole fraction)

molecule_smiles=O=C(N[C@H](Cc1ccccc1)C(=O)O)OCC1c2ccccc2-c2ccccc21 result=0.00331

====

# experimental_context: in isopropanol, 288.15 K
result_type: solubility (mole fraction)

molecule_smiles=O=C(N[C@H](Cc1ccccc1)C(=O)O)OCC1c2ccccc2-c2ccccc21 quantitative_result=0.00103

====

# experimental_context: in n-butanol, 298.15 K
result_type: solubility (mole fraction)

molecule_smiles=O=C(N[C@H](Cc1ccccc1)C(=O)O)OCC1c2ccccc2-c2ccccc21 quantitative_result=0.00181

====

# experimental_context: in isopropanol, 323.15 K
result_type: solubility (mole fraction)

molecule_smiles=O=C(N[C@H](Cc1ccccc1)C(=O)O)OCC1c2ccccc2-c2ccccc21 quantitative_result=0.00375

====

# experimental_context: in acetone, 308.15 K
result_type: solubility (mole fraction)

molecule_smiles=O=C(N[C@H](Cc1ccccc1)C(=O)O)OCC1c2ccccc2-c2ccccc21 result_type="solubility (mole fraction)" quantitative_result=0.0128

====

# experimental_context: in n-propanol, 288.15 K
result_type: solubility (mole fraction)

molecule_smiles=O=C(N[C@H](Cc1ccccc1)C(=O)O)OCC1c2ccccc2-c2ccccc21 result_type="solubility (mole fraction)" quantitative_result=0.00168

====

# experimental_context: in 2-butanone, 283.15 K
result_type: solubility (mole fraction)

molecule_smiles=O=C(N[C@H](Cc1ccccc1)C(=O)O)OCC1c2ccccc2-c2ccccc21 result_type="solubility (mole fraction)" quantitative_result=0.00646

====

# experimental_context: in ethanol, 308.15 K
result_type: solubility (mole fraction)

molecule_smiles=O=C(N[C@H](Cc1ccccc1)C(=O)O)OCC1c2ccccc2-c2ccccc21 result=0.00278

====

# experimental_context: in n-butanol, 303.15 K
result_type: solubility (mole fraction)

molecule_smiles=O=C(N[C@H](Cc1ccccc1)C(=O)O)OCC1c2ccccc2-c2ccccc21 quantitative_result=0.0022

====

# experimental_context: in n-propyl acetate, 318.15 K
result_type: solubility (mole fraction)

molecule_smiles=O=C(N[C@H](Cc1ccccc1)C(=O)O)OCC1c2ccccc2-c2ccccc21 result_type="solubility (mole fraction)" quantitative_result=0.00534

====

# experimental_context: in n-propyl acetate, 323.15 K
result_type: solubility (mole fraction)

molecule_smiles=O=C(N[C@H](Cc1ccccc1)C(=O)O)OCC1c2ccccc2-c2ccccc21 quantitative_result=0.00613

====

# experimental_context: in isopropanol, 283.15 K
result_type: solubility (mole fraction)

molecule_smiles=O=C(N[C@H](Cc1ccccc1)C(=O)O)OCC1c2ccccc2-c2ccccc21 result_type="solubility (mole fraction)" quantitative_result=0.000943

====

# experimental_context: in ethyl acetate, 283.15 K
result_type: solubility (mole fraction)

molecule_smiles=O=C(N[C@H](Cc1ccccc1)C(=O)O)OCC1c2ccccc2-c2ccccc21 quantitative_result=0.00272

====

# experimental_context: in acetonitrile, 308.15 K
result_type: solubility (mole fraction)

molecule_smiles=O=C(N[C@H](Cc1ccccc1)C(=O)O)OCC1c2ccccc2-c2ccccc21 quantitative_result=0.00117

====

# experimental_context: in n-butanol, 313.15 K
result_type: solubility (mole fraction)

molecule_smiles=O=C(N[C@H](Cc1ccccc1)C(=O)O)OCC1c2ccccc2-c2ccccc21 quantitative_result=0.00322

====

# experimental_context: in methanol, 308.15 K
result_type: solubility (mole fraction)

molecule_smiles=O=C(N[C@H](Cc1ccccc1)C(=O)O)OCC1c2ccccc2-c2ccccc21 quantitative_result=0.00285

====

# experimental_context: in n-propyl acetate, 303.15 K
result_type: solubility (mole fraction)

molecule_smiles=O=C(N[C@H](Cc1ccccc1)C(=O)O)OCC1c2ccccc2-c2ccccc21 quantitative_result=0.00354

====

# experimental_context: in acetonitrile, 293.15 K
result_type: solubility (mole fraction)

molecule_smiles=O=C(N[C@H](Cc1ccccc1)C(=O)O)OCC1c2ccccc2-c2ccccc21 quantitative_result=0.000723

====

# experimental_context: in n-propanol, 283.15 K
result_type: solubility (mole fraction)

molecule_smiles=O=C(N[C@H](Cc1ccccc1)C(=O)O)OCC1c2ccccc2-c2ccccc21 quantitative_result=0.00161

====

# experimental_context: in n-propanol, 293.15 K
result_type: solubility (mole fraction)

molecule_smiles=O=C(N[C@H](Cc1ccccc1)C(=O)O)OCC1c2ccccc2-c2ccccc21 quantitative_result=0.00178

====

# experimental_context: in methanol, 318.15 K
result_type: solubility (mole fraction)

molecule_smiles=O=C(N[C@H](Cc1ccccc1)C(=O)O)OCC1c2ccccc2-c2ccccc21 result=0.0039

====

# experimental_context: in n-propyl acetate, 313.15 K
result_type: solubility (mole fraction)

molecule_smiles=O=C(N[C@H](Cc1ccccc1)C(=O)O)OCC1c2ccccc2-c2ccccc21 result_type="solubility (mole fraction)" result=0.00467

====

# experimental_context: in isopropanol, 308.15 K
result_type: solubility (mole fraction)

molecule_smiles=O=C(N[C@H](Cc1ccccc1)C(=O)O)OCC1c2ccccc2-c2ccccc21 result_type="solubility (mole fraction)" quantitative_result=0.00208

====

# experimental_context: in acetone, 298.15 K
result_type: solubility (mole fraction)

molecule_smiles=O=C(N[C@H](Cc1ccccc1)C(=O)O)OCC1c2ccccc2-c2ccccc21 quantitative_result=0.00931

====

# experimental_context: in ethyl acetate, 318.15 K
result_type: solubility (mole fraction)

molecule_smiles=O=C(N[C@H](Cc1ccccc1)C(=O)O)OCC1c2ccccc2-c2ccccc21 result_type="solubility (mole fraction)" result=0.00682

====

# experimental_context: in acetone, 313.15 K
result_type: solubility (mole fraction)

molecule_smiles=O=C(N[C@H](Cc1ccccc1)C(=O)O)OCC1c2ccccc2-c2ccccc21 result_type="solubility (mole fraction)" quantitative_result=0.0146

====

# experimental_context: in n-butyl acetate, 283.15 K
result_type: solubility (mole fraction)

molecule_smiles=O=C(N[C@H](Cc1ccccc1)C(=O)O)OCC1c2ccccc2-c2ccccc21 result=0.00209

====

# experimental_context: in methyl acetate, 303.15 K
result_type: solubility (mole fraction)

molecule_smiles=O=C(N[C@H](Cc1ccccc1)C(=O)O)OCC1c2ccccc2-c2ccccc21 result=0.00537

====

# experimental_context: in ethyl acetate, 308.15 K
result_type: solubility (mole fraction)

molecule_smiles=O=C(N[C@H](Cc1ccccc1)C(=O)O)OCC1c2ccccc2-c2ccccc21 quantitative_result=0.00504

====

# experimental_context: in 2-butanone, 308.15 K
result_type: solubility (mole fraction)

molecule_smiles=O=C(N[C@H](Cc1ccccc1)C(=O)O)OCC1c2ccccc2-c2ccccc21 quantitative_result=0.0112

====

# experimental_context: in n-propanol, 303.15 K
result_type: solubility (mole fraction)

molecule_smiles=O=C(N[C@H](Cc1ccccc1)C(=O)O)OCC1c2ccccc2-c2ccccc21 quantitative_result=0.00217

====

# experimental_context: in n-propanol, 308.15 K
result_type: solubility (mole fraction)

molecule_smiles=O=C(N[C@H](Cc1ccccc1)C(=O)O)OCC1c2ccccc2-c2ccccc21 quantitative_result=0.00252

====

# experimental_context: in ethanol, 323.15 K
result_type: solubility (mole fraction)

molecule_smiles=O=C(N[C@H](Cc1ccccc1)C(=O)O)OCC1c2ccccc2-c2ccccc21 result_type="solubility (mole fraction)" quantitative_result=0.00515

====

# experimental_context: in acetone, 323.15 K
result_type: solubility (mole fraction)

molecule_smiles=O=C(N[C@H](Cc1ccccc1)C(=O)O)OCC1c2ccccc2-c2ccccc21 quantitative_result=0.0193
